- measurement.description: physchem
endpoint.name: half-life (h)
Only the number, expressed in h, is required.

stdin: Quick one: half-life of Oc1ccc(Cl)cc1Cl ?
stdout: 44

---

- measurement.description: Degradation kinetics without solar irradiation (darkness)
- Type: physicochemical
- experimental.conditions: buffer; pH 7.2; read-out: half-life in darkness (converted)
endpoint.name: half-life (h)
// note: answer is a bare numeric in h

stdin: Recorded half-life of O=C1C=C(Cl)C(=O)C(Cl)=C1 , please.
stdout: 15.1

---

- measurement.description: Degradation kinetics with solar irradiation
- experimental.conditions: pH not given
Below, each entry is listed with its recorded k, degradation, with solar irradiation.
Just the number in h⁻¹, nothing appended.

Worked set:
>  <compound>
Oc1cc(Br)c(O)cc1Br [2,5-Dibromohydroquinone, 2,5-dibromohydroquinone]

>  <k, degradation, with solar irradiation (h⁻¹)>
0.787

$$$$
>  <compound>
Oc1ccc(I)cc1I [2,4-Diiodophenol, 2,4-diiodophenol]

>  <k, degradation, with solar irradiation (h⁻¹)>
0.0083

$$$$
>  <compound>
Oc1ccc(Br)cc1Br [2,4-Dibromophenol, 2,4-dibromophenol]

>  <k, degradation, with solar irradiation (h⁻¹)>
0.0201

$$$$
>  <compound>
Oc1cc(I)c(O)cc1I [2,5-Diiodohydroquinone, 2,5-diiodohydroquinone]

>  <k, degradation, with solar irradiation (h⁻¹)>
0.756

$$$$
>  <compound>
Oc1ccc(Cl)cc1Cl [2,4-Dichlorophenol, 2,4-dichlorophenol]

>  <k, degradation, with solar irradiation (h⁻¹)>
0.0157

$$$$

Please find the next compound below.
stdin: Look up k, degradation, with solar irradiation: Oc1cc(Cl)c(O)cc1Cl [2,5-Dichlorohydroquinone, 2,5-dichlorohydroquinone]
stdout: 0.101
